I'd appreciate it if you could supply Kd values for the items below.
- System: HIS-PDZ1-2 protein (PSD-95 PDZ1-2 tandem, residues 61-249, with tag …) (human, UniProt P78352 61-249)
- Protocol details: ITC
Ends that are not written are not given here. * marks the point of attachment. PEG6‑diacid = 4,7,10,13,16,19,22-Heptaoxapentacosane-1,25-dioic acid, O=C(O)CCOCCOCCOCCOCCOCCOCCOCCC(=O)*
Give bare numbers, in nM.

[[record]]
binder = "{PEG12‑diacid}-IESDV (also: dimer: two peptides N-terminally joined via PEG12-diacid, Dimeric ligand) [(IESDV)2PEG12 (74)]"
measurement = 90

[[record]]
binder = "{PEG0‑diacid}-IESDV (also: dimer: two peptides N-terminally joined via PEG0-diacid, Dimeric ligand) [Compound 81 (IESDV dimerized with PEG0-diacid)]"
measurement = 1100

[[record]]
binder = "{PEG6‑diacid}-IESDV (also: dimer: two peptides N-terminally joined via PEG6-diacid, Dimeric ligand) [(IESDV)2PEG6 (77)]"
measurement = 39


Attention now shifts to the item below.
Need Kd of {PEG4‑diacid}-IESDV (also: dimer: two peptides N-terminally joined via PEG4-diacid, Dimeric ligand) [(IESDV)2PEG4 (78)] , thanks. 32
